pIC50 reference
targetOfAssay: Recombinant human JAK3 catalytic domain (Homo sapiens (Human))
protocolSummary: JAK3 kinase assay (Z'-LYTE, Tyr 6 Peptide)
Assay type: biochemical
cond: read-out: IC50 in JAK3 kinase assay
pIC50: −log10 of the molar value.

Worked examples follow.
>>> result("CN(c1ccc(C#N)cc1[N+](=O)[O-])[C@@H]1CCN(c2ncnc3[nH]ccc23)C1 [Compound 107]")
"6.00 to 7.00"
>>> result("CCCN(c1ccc(C#N)cn1)[C@@H]1CCN(c2ncnc3[nH]ccc23)C1 [Compound 98]")
"6.00 to 7.00"
>>> result("COC(=O)c1ccc(N(C)[C@@H]2CCN(c3ncnc4[nH]ccc34)C2)nc1 [Compound 168]")
"6.00 to 7.00"
>>> result("Cc1cc(N(C)[C@@H]2CCN(c3ncnc4[nH]ccc34)C2)ncc1[N+](=O)[O-] [Compound 77]")
"6.00 to 7.00"

Indicate the recorded pIC50 value for this compound: CN(c1cccc(C#N)n1)[C@@H]1CCN(c2ncnc3[nH]ccc23)C1 [Compound 91]
6.00 to 7.00

Indicate the recorded pIC50 value for this compound: CN(c1ccc(C#N)c(Br)c1)[C@@H]1CCN(c2ncnc3[nH]ccc23)C1 [Compound 114]
6.00 to 7.00

Indicate the recorded pIC50 value for this compound: CN(c1c(F)cc(C(=O)N[C@@H](CO)c2ccccc2)cc1F)[C@@H]1CCN(c2ncnc3[nH]ccc23)C1 [Compound 208]
7.00 to 9.00

Indicate the recorded pIC50 value for this compound: C=CCN(C1CCCC1)[C@@H]1CCN(c2ncnc3[nH]ccc23)C1 [Compound 40]
6.00 to 7.00

Indicate the recorded pIC50 value for this compound: CN(c1ccccn1)[C@@H]1CCN(c2ncnc3[nH]ccc23)C1 [Compound 156]
6.00 to 7.00

Indicate the recorded pIC50 value for this compound: CN(c1ccnc(C#N)c1)[C@@H]1CCN(c2ncnc3[nH]ccc23)C1 [Compound 121]
7.00 to 9.00

Indicate the recorded pIC50 value for this compound: CN(c1ccc(C(F)(F)F)nn1)[C@@H]1CCN(c2ncnc3[nH]ccc23)C1 [Compound 62]
6.00 to 7.00

Indicate the recorded pIC50 value for this compound: CN(C(=O)CC(F)(F)F)[C@@H]1CCN(c2ncnc3[nH]ccc23)C1 [Compound 25]
6.00 to 7.00

Indicate the recorded pIC50 value for this compound: CN(c1nc(Cl)nc2ccccc12)[C@@H]1CCN(c2ncnc3[nH]ccc23)C1 [Compound 79]
6.00 to 7.00

Indicate the recorded pIC50 value for this compound: CN(c1ccc(Cl)cn1)[C@@H]1CCN(c2ncnc3[nH]ccc23)C1 [Compound 67]
7.00 to 9.00

Indicate the recorded pIC50 value for this compound: CN(c1ccc(C(=O)NCc2ccccc2)cc1F)[C@@H]1CCN(c2ncnc3[nH]ccc23)C1 [Compound 187]
6.00 to 7.00

====

targetOfAssay: Recombinant human JAK3 catalytic domain (Homo sapiens (Human), UniProt P52333)
Sequence (P52333 822-1111): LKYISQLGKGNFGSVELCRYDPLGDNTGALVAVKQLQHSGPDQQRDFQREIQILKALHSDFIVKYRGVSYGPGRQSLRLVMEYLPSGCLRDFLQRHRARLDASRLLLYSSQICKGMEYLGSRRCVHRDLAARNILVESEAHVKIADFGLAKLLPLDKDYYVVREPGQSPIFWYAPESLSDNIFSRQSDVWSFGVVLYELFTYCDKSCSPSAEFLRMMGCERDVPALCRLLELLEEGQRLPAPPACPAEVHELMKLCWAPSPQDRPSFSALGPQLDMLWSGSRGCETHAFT
protocolSummary: JAK3 kinase assay (Z'-LYTE, Tyr 6 Peptide)
Format: biochemical
cond: read-out: JAK3 (enzyme, IC50)
pIC50: −log10 of the molar value.
quantity: pIC50

>>> numericreadout("CN(c1ccc(C(=O)Nc2nccs2)cn1)[C@@H]1CCN(c2ncnc3[nH]ccc23)C1")
6.28

[P] CN(c1ccc(S(N)(=O)=O)cn1)[C@@H]1CCN(c2ncnc3[nH]ccc23)C1
[Q] CN(c1ccc(C#N)c(F)c1)[C@@H]1CCN(c2ncnc3[nH]ccc23)C1
[R] CNS(=O)(=O)N(C)[C@@H]1CCN(c2ncnc3[nH]ccc23)C1
// ranking: key=pIC50, reverse=True Please list each label once, in the requested order.
P, R, Q

====

targetOfAssay: Recombinant human JAK2 catalytic domain (Homo sapiens (Human), UniProt O60674)
Sequence (O60674 849-1124): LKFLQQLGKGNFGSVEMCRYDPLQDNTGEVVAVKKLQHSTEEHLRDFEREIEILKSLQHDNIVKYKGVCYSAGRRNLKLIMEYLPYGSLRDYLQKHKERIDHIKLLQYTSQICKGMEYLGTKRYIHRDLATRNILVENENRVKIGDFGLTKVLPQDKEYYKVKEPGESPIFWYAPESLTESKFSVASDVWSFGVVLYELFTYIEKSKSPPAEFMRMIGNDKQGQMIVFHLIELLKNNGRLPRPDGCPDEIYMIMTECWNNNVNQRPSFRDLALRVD
protocolSummary: JAK2 kinase assay (Z'-LYTE, Tyr 6 Peptide)
Type: biochemical
cond: read-out: IC50 in JAK2 kinase assay
quantity: IC50

Worked examples follow.
>>> result("CN(c1ccc(-c2nn[nH]n2)cn1)[C@@H]1CCN(c2ncnc3[nH]ccc23)C1 [Compound 160]")
"100 to 1000 nM"
>>> result("CN(c1ccc(-c2cccs2)cn1)[C@@H]1CCN(c2ncnc3[nH]ccc23)C1 [Compound 147]")
"100 to 1000 nM"
>>> result("CN(c1ccc(C(=O)N[C@H](CO)c2ccccc2)cn1)[C@@H]1CCN(c2ncnc3[nH]ccc23)C1 [Compound 174]")
"1 to 100 nM"
>>> result("CN(c1ccc(C(=O)Nc2cccc(Cl)c2)cc1F)[C@@H]1CCN(c2ncnc3[nH]ccc23)C1 [Compound 185]")
"1 to 100 nM"
>>> result("CN(c1ccc(C(F)(F)F)cn1)[C@@H]1CCN(c2ncnc3[nH]ccc23)C1 [Compound 123]")
"1 to 100 nM"
>>> result("CN(c1ccc(C(=O)N[C@@H](CO)c2ccccc2)cn1)[C@@H]1CCN(c2ncnc3[nH]ccc23)C1 [Compound 176]")
"1 to 100 nM"
>>> result("N#CCN(C1CCC1)[C@@H]1CCN(c2ncnc3[nH]ccc23)C1 [Compound 52]")
"100 to 1000 nM"

Now look at this entry.
Indicate the recorded IC50 value for this compound: CN(c1ccc(C#N)c(Br)c1)[C@@H]1CCN(c2ncnc3[nH]ccc23)C1 [Compound 114]
1 to 100 nM

====

targetOfAssay: Recombinant human JAK2 catalytic domain (Homo sapiens (Human), UniProt O60674)
protocolSummary: JAK2 kinase assay (Z'-LYTE, Tyr 6 Peptide)
Format: biochemical
cond: read-out: IC50 in JAK2 kinase assay
pIC50: −log10 of the molar value.
quantity: pIC50

Worked examples follow.
>>> result("N#Cc1ccc(N(CC2CC2)[C@@H]2CCN(c3ncnc4[nH]ccc34)C2)nc1")
"7.00 to 9.00"
>>> result("CN(c1ncnc2ccccc12)[C@@H]1CCN(c2ncnc3[nH]ccc23)C1")
"7.00 to 9.00"
>>> result("CN(c1ncc(C#N)cc1F)[C@@H]1CCN(c2ncnc3[nH]ccc23)C1")
"6.00 to 7.00"
>>> result("Cc1cc(N(C)[C@@H]2CCN(c3ncnc4[nH]ccc34)C2)ncc1[N+](=O)[O-]")
"6.00 to 7.00"
>>> result("COC[C@H](NC(=O)c1ccc(N(C)[C@@H]2CCN(c3ncnc4[nH]ccc34)C2)nc1)c1ccccc1")
"7.00 to 9.00"

Indicate the recorded pIC50 value for this compound: `CCCN(c1ccc(C#N)cn1)[C@@H]1CCN(c2ncnc3[nH]ccc23)C1`
7.00 to 9.00

Indicate the recorded pIC50 value for this compound: `C#Cc1ccc(N(C)[C@@H]2CCN(c3ncnc4[nH]ccc34)C2)nc1`
7.00 to 9.00

Indicate the recorded pIC50 value for this compound: `N#CCN(C1CC1)[C@@H]1CCN(c2ncnc3[nH]ccc23)C1`
6.00 to 7.00

====

targetOfAssay: Recombinant human JAK2 catalytic domain (Homo sapiens (Human))
protocolSummary: JAK2 kinase assay (Z'-LYTE, Tyr 6 Peptide)
Type: biochemical
cond: read-out: IC50 in JAK2 kinase assay
pIC50: −log10 of the molar value.
pIC50 reference

Worked examples follow.
>>> result("CN(c1ccc(S(=O)(=O)NCCO)cn1)[C@@H]1CCN(c2ncnc3[nH]ccc23)C1")
"6.00 to 7.00"
>>> result("CN(c1nc(Cl)nc2ccccc12)[C@@H]1CCN(c2ncnc3[nH]ccc23)C1")
"6.00 to 7.00"
>>> result("CN(c1ccc(S(=O)(=O)NC[C@H]2CCCO2)cn1)[C@@H]1CCN(c2ncnc3[nH]ccc23)C1")
"7.00 to 9.00"
>>> result("CN(c1ccc(C(=O)NC[C@H](O)c2ccccc2)cc1F)[C@@H]1CCN(c2ncnc3[nH]ccc23)C1")
"7.00 to 9.00"
>>> result("CN(c1ccc(S(=O)(=O)N2CCOCC2)cn1)[C@@H]1CCN(c2ncnc3[nH]ccc23)C1")
"6.00 to 7.00"

Indicate the recorded pIC50 value for this molecule: `CN(c1ccc2[nH]c(=O)[nH]c2n1)[C@@H]1CCN(c2ncnc3[nH]ccc23)C1`
7.00 to 9.00

====

targetOfAssay: Recombinant human JAK3 catalytic domain (Homo sapiens (Human))
protocolSummary: JAK3 kinase assay (Z'-LYTE, Tyr 6 Peptide)
Type: biochemical
cond: read-out: IC50 in JAK3 kinase assay
IC50 reference

Worked examples follow.
>>> result("CN(c1ccc(C#N)c2ccccc12)[C@@H]1CCN(c2ncnc3[nH]ccc23)C1")
"100 to 1000 nM"
>>> result("C#Cc1ccc(N(C)[C@@H]2CCN(c3ncnc4[nH]ccc34)C2)nc1")
"1 to 100 nM"
>>> result("Cc1cc(Cl)nc(N(C)[C@@H]2CCN(c3ncnc4[nH]ccc34)C2)c1C#N")
"100 to 1000 nM"

Write down the reported IC50 (system: Recombinant human JAK3 catalytic domain (Homo sapiens (Human))) of `COc1cc2ncnc(N(C)[C@@H]3CCN(c4ncnc5[nH]ccc45)C3)c2cc1OC`
100 to 1000 nM

Write down the reported IC50 (system: Recombinant human JAK3 catalytic domain (Homo sapiens (Human))) of `CN(c1ncc(C#N)cc1[N+](=O)[O-])[C@@H]1CCN(c2ncnc3[nH]ccc23)C1`
100 to 1000 nM

Write down the reported IC50 (system: Recombinant human JAK3 catalytic domain (Homo sapiens (Human))) of `CCS(=O)(=O)N(C)[C@@H]1CCN(c2ncnc3[nH]ccc23)C1`
100 to 1000 nM
